Origin of measurements: patent US5914328A

Entries and their pKi
# assayedTarget: neuronal nicotinic cholinergic channel receptor
# experimentalProtocol: Binding of [3H]-cytisine to neuronal nicotinic receptors, whole rat brain synaptic membranes
# conditionSet: read-out: Receptor Binding Ki (Table 2)
pKi: −log10 of the molar value. Where a name gives a salt, the structure may show the parent alone.

>  <molecule>
Cc1ccc(OC[C@H]2CCCN2C)cn1 [Example 36, dihydrochloride]

>  <assayedTarget>
neuronal nicotinic cholinergic channel receptor

>  <pKi>
7.59

$$$$
>  <molecule>
CN1CCCCC1COc1cccnc1 (centres unmarked) [Example 26, oxalate salt]

>  <assayedTarget>
neuronal nicotinic cholinergic channel receptor

>  <pKi>
7.12

$$$$
>  <molecule>
CC(Oc1cccnc1)[C@@H]1CCCN1C (some centres unmarked) [Example 6, hydrochloride]

>  <assayedTarget>
neuronal nicotinic cholinergic channel receptor

>  <pKi>
8.17

$$$$
>  <molecule>
Cc1ncccc1OC[C@@H]1CCN1 [Example 29, dihydrochloride]

>  <assayedTarget>
neuronal nicotinic cholinergic channel receptor

>  <pKi>
8.89

$$$$
>  <molecule>
C[C@@H]1C[C@@H](COc2cccnc2)N(C)C1 [Example 24, dihydrochloride]

>  <assayedTarget>
neuronal nicotinic cholinergic channel receptor

>  <pKi>
8.38

$$$$

* * *

# System: nAChR evoked release of [3H]-dopamine
# experimentalProtocol: Striatal dopamine release ([3H]-dopamine, superfused rat striatal slices)
# Type: cell-based
# conditionSet: example concentration 10 μM (*); standard 100 nM (-)-nicotine = 1.0
Where a name gives a salt, the structure may show the parent alone.
With a cut-off of 0.8, any Dopamine Release relative to Nicotine strictly below it is called 1 (yes); any Dopamine Release relative to Nicotine meeting it or above is called 0 (no).

>  <compound>
CN1CCC[C@H]1COc1cnc2ccccc2c1.Cl [Example 31]

>  <answerLabel>
1 (yes)

$$$$
>  <compound>
Cc1ccncc1OC[C@@H]1CCCN1C.Cl.Cl [Example 46]

>  <answerLabel>
0 (no)

$$$$
>  <compound>
Cc1ccc(OC[C@@H]2CCN2C)cn1.Cl.Cl [Example 59]

>  <answerLabel>
1 (yes)

$$$$
>  <compound>
CN1CCC[C@@H]1COc1cccnc1.Cl [Example 1]

>  <answerLabel>
1 (yes)

$$$$
>  <compound>
Clc1ccc(OC[C@@H]2CCN2)cn1 [Example 52, dihydrochloride]

>  <answerLabel>
0 (no)

$$$$
>  <compound>
CN1CC[C@H]1COc1cnccn1.Cl.Cl [Example 8]

>  <answerLabel>
1 (yes)

$$$$
>  <compound>
CN1CCC[C@H]1COc1cccnc1.O=C(O)/C=C/C(=O)O [Example 4]

>  <answerLabel>
0 (no)

$$$$
>  <compound>
Cl.Cl.c1cncc(OC[C@@H]2CCN2)c1 [Example 9]

>  <answerLabel>
0 (no)

$$$$
>  <compound>
CN1CC[C@H]1COc1cccnc1 [Example 10, dihydrochloride]

>  <answerLabel>
0 (no)

$$$$
>  <compound>
CN1CCC[C@H]1CCOc1cccnc1.Cl.Cl [Example 103]

>  <answerLabel>
1 (yes)

$$$$
>  <compound>
CCN1CCC[C@H]1COc1cccnc1.Cl.Cl [Example 38]

>  <answerLabel>
1 (yes)

$$$$
